# target: Peroxisome proliferator-activated receptor alpha (Homo sapiens, UniProt Q07869)
# Sequence (Q07869 whole entry, the tested form may be a part): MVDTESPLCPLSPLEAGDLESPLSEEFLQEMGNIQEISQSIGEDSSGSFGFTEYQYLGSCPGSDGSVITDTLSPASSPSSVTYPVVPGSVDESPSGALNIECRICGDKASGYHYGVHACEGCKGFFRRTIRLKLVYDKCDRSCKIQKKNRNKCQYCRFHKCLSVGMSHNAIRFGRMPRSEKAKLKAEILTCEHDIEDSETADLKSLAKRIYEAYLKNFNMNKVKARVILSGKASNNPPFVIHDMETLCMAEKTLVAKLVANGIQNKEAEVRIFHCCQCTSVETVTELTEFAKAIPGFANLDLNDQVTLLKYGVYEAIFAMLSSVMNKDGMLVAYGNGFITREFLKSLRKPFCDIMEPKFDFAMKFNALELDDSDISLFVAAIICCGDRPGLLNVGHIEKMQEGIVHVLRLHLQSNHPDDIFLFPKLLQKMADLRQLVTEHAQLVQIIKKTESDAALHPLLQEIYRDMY
# assay_explanation: Agonist activity at human PPARalpha ligand binding domain expressed in human 293T cells co-transfected with Gal4-DBD by luciferase transactivation assay
# Format: cell-based
# condition_info: read-out: EC50

{"chemical_string": "COc1ccc(-c2nc(COc3ccc(OCC(=O)O)c(C)c3)oc2-c2cccc(C(F)(F)F)c2)cc1", "EC50": "> 10 µM"}
{"chemical_string": "COc1ccc(-c2nc(COc3ccc(OCC(=O)O)c(C)c3)sc2-c2cccc3ccccc23)cc1", "EC50": "> 10 µM"}
{"chemical_string": "Cc1cc(OCc2nc(-c3ccc(-c4ccccc4)cc3)cs2)ccc1OCC(=O)O", "EC50": "0.48 µM"}
{"chemical_string": "COc1ccc(-c2nc(COc3ccc(OCC(=O)O)c(C)c3)sc2-c2ccc(OC)cc2)cc1", "EC50": "> 10 µM"}
{"chemical_string": "Cc1cc(OCc2nc(-c3ccc(N4CCOCC4)nc3)c(-c3ccc(OC(F)(F)F)cc3)o2)ccc1OCC(=O)O", "EC50": "1.2 µM"}
{"chemical_string": "COc1ccc(-c2nc(CSc3ccc(CC(=O)O)cc3Cl)sc2-c2ccc(C(F)(F)F)cc2)cc1", "EC50": "> 10 µM"}
{"chemical_string": "COc1ccc(-c2nc(COc3ccc(OCC(=O)O)c(C)c3)sc2-c2ccccc2C(F)(F)F)cc1", "EC50": "> 10 µM"}
{"chemical_string": "Cc1cc(OCc2nc(C)c(-c3ccc(Cl)cc3)s2)ccc1OCC(=O)O", "EC50": "> 10 µM"}
{"chemical_string": "Cc1cc(OCc2nc(-c3ccc(N4CCCCC4)cc3)c(-c3ccc(OC(F)(F)F)cc3)s2)ccc1OCC(=O)O", "EC50": "5.2 µM"}
{"chemical_string": "COc1ccc(-c2nc(COc3ccc(OCC(=O)O)c(C)c3)oc2-c2ccc(OC(F)(F)F)cc2)cn1", "EC50": "> 10 µM"}
{"chemical_string": "COc1ccc(-c2nc(COc3ccc(OCC(=O)O)c(C)c3)sc2-c2cccc(C(F)(F)F)c2)cc1", "EC50": "> 10 µM"}
{"chemical_string": "COc1ccc(-c2nc(COc3ccc(OCC(=O)O)c(C)c3)sc2-c2ccc(C(F)(F)F)cc2)cc1", "EC50": "> 10 µM"}
{"chemical_string": "COc1ccc(-c2nc(COc3ccc(OCC(=O)O)c(C)c3)sc2-c2ccccc2)cc1", "EC50": "> 10 µM"}
{"chemical_string": "COc1ccc(-c2nc(COc3ccc(CC(=O)O)c(C)c3)sc2-c2ccc(C(F)(F)F)cc2)cc1", "EC50": "> 10 µM"}
{"chemical_string": "Cc1ccc(-c2sc(COc3ccc(OCC(=O)O)c(C)c3)nc2C)cc1", "EC50": "> 10 µM"}
{"chemical_string": "Cc1cc(OCc2nc(-c3ccc(OC4CCCC4)cc3)c(-c3ccc(OC(F)(F)F)cc3)o2)ccc1OCC(=O)O", "EC50": "0.91 µM"}
{"chemical_string": "COc1ccc(-c2nc(COc3ccc(OCC(=O)O)c(C)c3)oc2-c2ccc(Cl)c(Cl)c2)cc1", "EC50": "> 10 µM"}
{"chemical_string": "Cc1cc(OCc2nc(-c3cncnc3)c(-c3ccc(OC(F)(F)F)cc3)o2)ccc1OCC(=O)O", "EC50": "> 10 µM"}
